Each recorded value in this set is attributed to the supplement of paper PMC8960247.

# System: UMB1949 (TSC2-deficient);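 note: renal angiomyolipoma cell lines screened in 384-well plates, viability normalized per plate to DMSO-treated cells, each plate carrying 50 nM rapamycin and 1 µM staurosporine controls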
# Protocol Description: relative viability vs DMSO (fraction); higher = less cytotoxic
# Condition Summary: 0.32 nM; serum: 0.1% FBS; 72 h
Measurement Type: relative viability

Compound | Measurement Type | Reading
CCOc1ccn(-c2ccc(F)cc2)c(=O)c1C(=O)Nc1ccc(Oc2ccnc(N)c2Cl)c(F)c1 | relative viability | 0.983
CCC[C@H](Nc1nc(-c2ccc(NC(=O)NCC)c(OC)c2)ncc1C)c1cccnc1 | relative viability | 0.00719
Nc1ncnc2c1c(-c1cccc(OCc3ccccc3)c1)cn2C1CC(CN2CCCC2)C1 (centres undefined) | relative viability | 1.13
CC(C)C[C@H](NC(=O)[C@H](Cc1ccccc1)NC(=O)c1cnccn1)B(O)O | relative viability | 1.02

----------
Measured relative viability values are reported for all entries that follow.
# System: 621-102 (TSC2-deficient)
# Protocol Description: relative viability vs DMSO; higher = less cytotoxic
# Condition Summary: 0.1 µM; serum: 10% FBS; 72 h
Measurement Type: relative viability (%)

Molecule | Measurement Type | Units Of Measure | Reading
O=C(NC[C@H](O)CO)c1ccncc1Nc1ccc(I)cc1F | relative viability | % | 97
Cc1[nH]c2ccccc2c1CCNCc1ccc(/C=C/C(=O)NO)cc1 | relative viability | % | 41.3
CC(=O)Nc1nc(C)c(-c2ccc(Cl)c(S(=O)(=O)NCCO)c2)s1 | relative viability | % | 112
COc1cc(Nc2c(C#N)cnc3cc(OCCCN4CCN(C)CC4)c(OC)cc23)c(Cl)cc1Cl [Bosutinib (SKI-606)] | relative viability | % | 103
CC(C)(Cc1ccc2ccccc2c1)NC[C@@H](O)COc1cccc(Cl)c1C#N | relative viability | % | 97.6
CC[C@H]1OC(=O)[C@H](C)[C@@H](O[C@H]2C[C@@](C)(OC)[C@@H](O)[C@H](C)O2)[C@H](C)[C@@H](O[C@@H]2O[C@H](C)C[C@H](N(C)C)[C@H]2O)[C@](C)(OC)C[C@@H](C)C(=O)[C@H](C)[C@@H](O)[C@]1(C)O | relative viability | % | 115
Nc1cccc2c1C(=O)N(C1CCC(=O)NC1=O)C2=O (stereo not drawn) [Pomalidomide] | relative viability | % | 116
CCCCC(=O)N(Cc1ccc(-c2ccccc2-c2nnn[nH]2)cc1)[C@H](C(=O)O)C(C)C | relative viability | % | 117

----------
# System: 621-103 (TSC2-rescued)
# Protocol Description: relative viability vs DMSO; higher = less cytotoxic
# Condition Summary: 0.1 µM; serum: 10% FBS; 72 h

Compound | relative viability / %
CC(C)(C)c1[nH]cnc1/C=c1\[nH]c(=O)/c(=C/c2ccccc2)[nH]c1=O [NPI-2358] | 36.2
CNCc1ccc(-c2[nH]c3cc(F)cc4c3c2CCNC4=O)cc1 | 108
COc1ccc(-c2ccc3c(N4CCOC[C@@H]4C)nc(N4CCOC[C@@H]4C)nc3n2)cc1CO [AZD8055] | 48.4
Cc1[nH]c(/C=C2\C(=O)Nc3ccc(S(=O)(=O)N(C)c4cccc(Cl)c4)cc32)c(C)c1C(=O)N1CCN(C)CC1 | 99.5
O=C(CCCCCCC(=O)Nc1ccccc1)NO [Vorinostat] | 97.9

----------
# reported relative viability; entries follow
# Test system: 621-102 (TSC2-deficient)
# Protocol Description: relative viability vs DMSO; higher = less cytotoxic
# Condition Summary: 0.1 µM; serum: 10% FBS; 72 h

Compound | System | Units Of Measure | relative viability
COc1cc(Nc2ncc3c(n2)-c2ccc(Cl)cc2C(c2c(F)cccc2OC)=NC3)ccc1C(=O)O | 621-102 (TSC2-deficient) | % | 87.6
COc1cc2c(Nc3ccc(NC(=O)c4ccccc4)cc3)ncnc2cc1OCCCN1CCOCC1 | 621-102 (TSC2-deficient) | % | 90.2
CC(C)C[C@H](NC(=O)CNC(=O)c1cc(Cl)ccc1Cl)B1OC(=O)C(CC(=O)O)(CC(=O)O)O1 | 621-102 (TSC2-deficient) | % | 21.9
Cc1nnc(C(C)C)n1[C@H]1C[C@H]2CC[C@@H](C1)N2CC[C@H](NC(=O)C1CCC(F)(F)CC1)c1ccccc1 [Maraviroc (Selzentry)] | 621-102 (TSC2-deficient) | % | 101
